Recorded values, source patent US20200216495A1.

The following binders are listed with their measured IC50, Tau40 assay (ThT) values.
Molecular target: Tau40 P301L protein (human)
Assay: cell-based or functional assay
Square brackets hold non-standard residues; d marks the D form. Ends that are not written are not given here.
Give just the number in µM; leave the unit off.

[dL][dH][dL][dK][dI][dR][dY][dH] [lhlkiryh (PEPTIDE ID NO: 410)] ... 1.16

// [dW][dR][dL][dA][dI][dH][dW] [wrlaihw (PEPTIDE ID NO: 325)] : IC50, Tau40 assay (ThT) value = 2.65

Short answer for [dM][dR][dL][dR][dI][dH][dW] [mrlrihw (PEPTIDE ID NO: 242)] : IC50, Tau40 assay (ThT) was 1.01
